experiment: Kinematic viscosity of surfactant base formulation with added agent, calibrated Cannon viscometers at 40° C.; type: physicochemical; settings: lowest over 2-8% agent, Table 2
Reported Kinematic viscosity at 40 C. [cSt] Lowest viscosity achieved maps to class as: one (below 40 cSt), two (40 cSt to below 200 cSt), three (200 cSt or more)

For orientation, consider the following solved cases.
COC(C)(C)C1CC=C(C)CC1 (centres unmarked)
three
CCC(=O)O[C@@H]1C[C@H]2CC[C@]1(C)C2(C)C (racemic) [Iso Bornyl Propionate]
three
CC(C)CCOC(=O)c1ccccc1O [Isoamyl Salicylate]
two
CC(C)=CCC/C(C)=C/COC(=O)Cc1ccccc1 [Geranyl Phenyl Acetate]
one
CCC(CC(C)CC)=NO (centres unmarked)
three

QUERY: Each compound maps to one class by Kinematic viscosity at 40 C. [cSt] Lowest viscosity achieved. Which class for CC(C)COC(=O)c1ccccc1O [Iso Butyl Salicylate] ?
RESULT: three

QUERY: Each compound maps to one class by Kinematic viscosity at 40 C. [cSt] Lowest viscosity achieved. Which class for CC12CCC(CC1=O)C2(C)C (centres unmarked) ?
RESULT: two

* * *

Assay: Kinematic viscosity of surfactant base formulation with added agent, calibrated Cannon viscometers at 40° C.
Assay type: physicochemical
Conditions: lowest over 2-8% agent, Table 2
Description: Referring to Tables 1 and 2, the base formulations were made by mixing 1.6% perfume, 24% sodium undecyl sulfate (CAS#1072-24-8) active, 6% lauramidopropyl betaine (CAS#4292-10-8) active and 60.4% deionized water which leaves 8% unfilled for the addition of a viscosity reducing agent (the balance being filled in by distilled water). […] Viscosity values were calculated based on the equation: […]
Recorded Kinematic viscosity at 40 C. [cSt] Lowest viscosity achieved for the following molecules
Record the value in cSt, omitting the unit from your answer.

Guide cases for Kinematic viscosity at 40 C. [cSt] Lowest viscosity achieved, answers given:
C=C(C)[C@H]1CC=C(C)CC1 [Limonene]
86
CCO [Ethanol, reference compound]
29
CC(=O)OCCC(C)CCC=C(C)C (centres unmarked) [Citronellyl Acetate]
363
CCCCOC(=O)c1ccccc1O [Butyl Salicylate]
368

Query molecule follows.
QUERY: Give the measured Kinematic viscosity at 40 C. [cSt] Lowest viscosity achieved of CCCCCCC1C(=O)CCC1C(=O)OC (centres unmarked) [Dihyro Iso Jasmonate] .
RESULT: 119

* * *

test: Kinematic viscosity of surfactant base formulation with added agent, calibrated Cannon viscometers at 40° C.; type: physicochemical; details: 2% agent in base formulation
With a cut-off of 400 cSt, any Kinematic viscosity at 40 C. [cSt] 2% oil strictly below it is called YES; any Kinematic viscosity at 40 C. [cSt] 2% oil meeting it or above is called NO.

QUERY: Bench note: check whether CCO [Ethanol, reference compound] shows Kinematic viscosity at 40 C. [cSt] 2% oil below 400 cSt
RESULT: YES

* * *

Test: Kinematic viscosity of surfactant base formulation with added agent, calibrated Cannon viscometers at 40° C.
Assay type: physicochemical
Settings: 4% agent in base formulation
Method: Referring to Tables 1 and 2, the base formulations were made by mixing 1.6% perfume, 24% sodium undecyl sulfate (CAS#1072-24-8) active, 6% lauramidopropyl betaine (CAS#4292-10-8) active and 60.4% deionized water which leaves 8% unfilled for the addition of a viscosity reducing agent (the balance being filled in by distilled water). […] Viscosity values were calculated based on the equation: […]
Recorded Kinematic viscosity at 40 C. [cSt] 4% oil for the following compounds
Record the value in cSt, omitting the unit from your answer.

Guide cases for Kinematic viscosity at 40 C. [cSt] 4% oil, answers given:
CCO [Ethanol, reference compound]
111.0
CC12CCC(CC1)C(C)(C)O2 [Eucalyptol]
292.9
CC(C)CCOC(=O)c1ccccc1O [Isoamyl Salicylate]
193.2
CC(CC=O)CCCC(C)(C)O (stereo not drawn) [Hydroxycitronellal]
145.4
COC(C)(C)C1CC=C(C)CC1 (stereo not drawn) [Orange Flower Ether]
418.8

QUERY: Give the measured Kinematic viscosity at 40 C. [cSt] 4% oil of CCCCCCC1C(=O)CCC1C(=O)OC (stereo not drawn) [Dihyro Iso Jasmonate] .
RESULT: 119.1

QUERY: Give the measured Kinematic viscosity at 40 C. [cSt] 4% oil of C=C(C)[C@H]1CC=C(C)CC1 [Dipentene] .
RESULT: 74.5

QUERY: Give the measured Kinematic viscosity at 40 C. [cSt] 4% oil of CC1=CCC(C(C)C)=CC1 [gamma-Terpinene] .
RESULT: 65.0

QUERY: Give the measured Kinematic viscosity at 40 C. [cSt] 4% oil of CC(=O)CCc1ccc(O)cc1 [Raspberry Ketone] .
RESULT: 107.4

QUERY: Give the measured Kinematic viscosity at 40 C. [cSt] 4% oil of CC12CCC(CC1=O)C2(C)C (stereo not drawn) [Camphor Gum] .
RESULT: 127.2

QUERY: Give the measured Kinematic viscosity at 40 C. [cSt] 4% oil of CCCCCCCC(OC)OC [1,1-Dimethoxyoctane] .
RESULT: 308.1

QUERY: Give the measured Kinematic viscosity at 40 C. [cSt] 4% oil of CCCCCCCCCCCCCCCC [Hexadecane] .
RESULT: 18.1

QUERY: Give the measured Kinematic viscosity at 40 C. [cSt] 4% oil of CC1=CC=C(C(C)C)CC1 [alpha-Terpinene] .
RESULT: 96.0

QUERY: Give the measured Kinematic viscosity at 40 C. [cSt] 4% oil of CCCCCCCCCCCCCC(=O)OC(C)C [Iso Propyl Myristate] .
RESULT: 53.7

QUERY: Give the measured Kinematic viscosity at 40 C. [cSt] 4% oil of CCCCCC(=O)OCC(C)C [Isobutyl Hexanoate] .
RESULT: 177.9

* * *

test: Kinematic viscosity of surfactant base formulation with added agent, calibrated Cannon viscometers at 40° C.; format: physicochemical; conditions: 6% agent in base formulation
Counter-ions that a name gives are not always drawn.
Readout: Kinematic viscosity at 40 C. [cSt] 6% oil (cSt)
Record the value in cSt, omitting the unit from your answer.

CC(C)=CCC/C(C)=C/COC(=O)Cc1ccccc1 [Geranyl Phenyl Acetate]
34.3
CCCCCCCCCCCCCC(=O)OC(C)C [Iso Propyl Myristate]
30.4
CC1=CCC(C(C)C)=CC1
31.7

QUERY: Give the measured Kinematic viscosity at 40 C. [cSt] 6% oil of CCOC(=O)CC(O)(CC(=O)OCC)C(=O)OCC [Triethyl Citrate] .
RESULT: 66.6

QUERY: Give the measured Kinematic viscosity at 40 C. [cSt] 6% oil of C=C(C)[C@H]1CC=C(C)CC1 [Limonene] .
RESULT: 97.5

QUERY: Give the measured Kinematic viscosity at 40 C. [cSt] 6% oil of CC(CC=O)CCCC(C)(C)O (centres unmarked) [Hydroxycitronellal] .
RESULT: 65.9

QUERY: Give the measured Kinematic viscosity at 40 C. [cSt] 6% oil of CCCCCC1(C)CCC(C)(C)C1=O (centres unmarked) .
RESULT: 56.3

QUERY: Give the measured Kinematic viscosity at 40 C. [cSt] 6% oil of C=CC(C)(CCC=C(C)C)OC(=O)C(C)C (centres unmarked) [Linalyl Iso Butyrate] .
RESULT: 37.7

QUERY: Give the measured Kinematic viscosity at 40 C. [cSt] 6% oil of C=C(C)[C@H]1CC=C(C)CC1 [Dipentene] .
RESULT: 35.1

QUERY: Give the measured Kinematic viscosity at 40 C. [cSt] 6% oil of "CC1=CC=C(C(C)C)CC1" .
RESULT: 41.5

QUERY: Give the measured Kinematic viscosity at 40 C. [cSt] 6% oil of "CC12CCC(CC1)C(C)(C)O2" .
RESULT: 203.1

QUERY: Give the measured Kinematic viscosity at 40 C. [cSt] 6% oil of "CC(=O)CCc1ccc(O)cc1" .
RESULT: 54.0

QUERY: Give the measured Kinematic viscosity at 40 C. [cSt] 6% oil of CCCCCC(=O)OCC(C)C [Isobutyl Hexanoate] .
RESULT: 140.9

QUERY: Give the measured Kinematic viscosity at 40 C. [cSt] 6% oil of CCO [Ethanol, reference compound] .
RESULT: 50.8

* * *

assay: Kinematic viscosity of surfactant base formulation with added agent, calibrated Cannon viscometers at 40° C.; format: physicochemical; conditions: 4% agent in base formulation
Counter-ions that a name gives are not always drawn.
Readout: Kinematic viscosity at 40 C. [cSt] 4% oil (cSt)
Record the value in cSt, omitting the unit from your answer.

CCOC(=O)CC(O)(CC(=O)OCC)C(=O)OCC [Triethyl Citrate]
136.6
C=C(C)[C@H]1CC=C(C)CC1 [Limonene]
166.8
CCCCCC1(C)CCC(C)(C)C1=O (centres unmarked) [Veloutone]
129.1
C=CC(C)(CCC=C(C)C)OC(=O)C(C)C (centres unmarked) [Linalyl Iso Butyrate]
73.0

Query compound follows.
QUERY: Give the measured Kinematic viscosity at 40 C. [cSt] 4% oil of CC(C)=CCC/C(C)=C/COC(=O)Cc1ccccc1 [Geranyl Phenyl Acetate] .
RESULT: 76.0
